Cited source: patent US11759455B2

# Tgt: human GluN1/GluN2B NMDA receptors (Homo sapiens)
# Construct: expressed in transfected cells
# Sequence (Q13224 27-1484, other chains not shown): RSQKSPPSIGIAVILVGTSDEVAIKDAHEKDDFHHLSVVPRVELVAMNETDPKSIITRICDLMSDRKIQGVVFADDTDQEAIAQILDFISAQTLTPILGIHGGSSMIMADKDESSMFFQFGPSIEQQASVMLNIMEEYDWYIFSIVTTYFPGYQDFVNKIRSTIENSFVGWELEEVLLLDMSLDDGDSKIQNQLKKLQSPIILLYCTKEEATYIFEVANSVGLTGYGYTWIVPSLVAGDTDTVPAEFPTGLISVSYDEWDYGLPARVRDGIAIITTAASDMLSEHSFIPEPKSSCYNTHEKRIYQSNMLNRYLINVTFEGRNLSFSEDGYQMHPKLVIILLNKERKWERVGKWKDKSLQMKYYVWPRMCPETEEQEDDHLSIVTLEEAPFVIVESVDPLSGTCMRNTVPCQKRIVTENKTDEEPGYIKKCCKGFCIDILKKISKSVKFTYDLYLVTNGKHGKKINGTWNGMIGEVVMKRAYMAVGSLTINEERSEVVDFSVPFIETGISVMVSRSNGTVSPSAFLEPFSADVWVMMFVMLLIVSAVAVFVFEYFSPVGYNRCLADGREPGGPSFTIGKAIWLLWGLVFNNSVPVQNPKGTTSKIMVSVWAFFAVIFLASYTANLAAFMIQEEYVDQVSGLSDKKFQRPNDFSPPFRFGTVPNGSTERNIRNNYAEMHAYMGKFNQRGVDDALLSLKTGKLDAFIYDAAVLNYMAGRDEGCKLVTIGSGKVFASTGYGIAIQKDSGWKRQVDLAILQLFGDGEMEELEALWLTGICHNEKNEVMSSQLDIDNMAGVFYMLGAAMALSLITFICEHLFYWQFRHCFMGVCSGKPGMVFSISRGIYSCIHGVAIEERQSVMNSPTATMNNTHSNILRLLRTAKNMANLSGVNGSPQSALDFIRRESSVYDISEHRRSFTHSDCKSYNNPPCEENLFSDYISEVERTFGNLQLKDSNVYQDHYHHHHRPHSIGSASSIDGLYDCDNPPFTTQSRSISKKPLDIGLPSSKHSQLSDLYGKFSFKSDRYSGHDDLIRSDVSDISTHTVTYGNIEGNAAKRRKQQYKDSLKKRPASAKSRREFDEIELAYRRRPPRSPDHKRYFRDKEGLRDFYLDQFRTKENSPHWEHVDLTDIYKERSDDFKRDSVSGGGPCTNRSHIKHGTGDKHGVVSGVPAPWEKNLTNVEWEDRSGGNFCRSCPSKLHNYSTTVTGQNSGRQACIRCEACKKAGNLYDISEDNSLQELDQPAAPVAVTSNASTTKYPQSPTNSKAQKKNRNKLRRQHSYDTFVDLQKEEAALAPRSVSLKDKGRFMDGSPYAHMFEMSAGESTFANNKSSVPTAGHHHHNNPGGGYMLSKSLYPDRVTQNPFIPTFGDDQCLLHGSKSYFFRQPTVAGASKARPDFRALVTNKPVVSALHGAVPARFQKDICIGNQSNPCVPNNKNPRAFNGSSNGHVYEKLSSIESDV
# Assay info: Cell-based calcium flux (FLIPR) assay on cloned human NR1/NR2B ion channels expressed in mammalian cells (standard and HTS buffer variants)
# Measurement conditions: standard assay buffer (0.5 mM MgCl2 dye loading; 137 mM NaCl, 4 mM KCl assay buffer), human GluN1/GluN2B cells, read-out: NR2B IC50 (μM) standard assay
Assay readout: IC50 (µM)

>>> measured_result("Cn1c(=O)n(Cc2ncccn2)c2cc(-c3cccc(C(F)(F)F)c3)cnc21 [Example 261]")
0.573
>>> measured_result("Cc1cncc(Cn2c(=O)[nH]c3ncc(-c4ccc(F)c(C(F)(F)F)c4)cc32)c1 [Example 309]")
0.316
>>> measured_result("Cn1c(=O)n(Cc2cccnn2)c2cc(-c3ccc(F)s3)cnc21 [Example 85]")
0.157
>>> measured_result("Cn1c(=O)n(Cc2ccncn2)c2cc(-c3cccc(C(F)(F)F)c3)cnc21 [Example 246]")
0.349

I: Cn1c(=O)n(Cc2cncnc2)c2cc(-c3cccc(C(F)(F)F)c3)cnc21 [Example 247]
II: Cc1c(-c2cnc3[nH]c(=O)n(CCN4CC(F)C4)c3c2)cccc1C(F)(F)F [Example 181]
Prompt line: Quick check, higher IC50 between I and II ? Kindly give the label for the entry you pick.
Response line: II

###

# Tgt: human GluN1/GluN2B NMDA receptors (Homo sapiens)
# Construct: expressed in transfected cells
# Assay info: Cell-based calcium flux (FLIPR) assay on cloned human NR1/NR2B ion channels expressed in mammalian cells (standard and HTS buffer variants)
# Measurement conditions: standard assay buffer (0.5 mM MgCl2 in dye loading buffer; 137 mM NaCl, 4 mM KCl in assay buffer), human GluN1/GluN2B, read-out: NR2B IC50 (μM) standard assay
Assay readout: IC50 (µM)

The following compounds have reported results that may help.
>>> measured_result("Cn1c(=O)n(Cc2cccnc2)c2cc(-c3cccc(Cl)c3F)cnc21")
0.096
>>> measured_result("Cn1c(=O)n(Cc2cccnc2)c2cc(-c3cccc(C(F)(F)F)c3)cnc21")
0.105

a: CCOc1ccc(F)cc1-c1cnc2[nH]c(=O)n(Cc3cc(C)on3)c2c1
b: Cc1ccc(-c2cnc3c(c2)n(Cc2csnn2)c(=O)n3C)s1
c: Cc1cc(Cn2c(=O)n(C)c3ncc(-c4ccc(C)s4)cc32)no1
d: O=c1[nH]c2ncc(-c3cccs3)cc2n1CC1CC1
e: COc1ccc(-c2cnc3[nH]c(=O)n(CC(=O)c4cccs4)c3c2)cc1
Prompt line: Rank descending by IC50. Provide the ranking by listing each label in its place in the requested order.
Response line: d, b, c, a, e
(d: 1.56 µM, b: 0.363 µM, c: 0.216 µM, a: 0.132 µM, e: 0.054 µM)

###

# Tgt: human GluN1/GluN2B NMDA receptors (Homo sapiens)
# Construct: expressed in transfected cells
# Assay info: Cell-based calcium flux (FLIPR) assay on cloned human NR1/NR2B ion channels expressed in mammalian cells (standard and HTS buffer variants);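 further: stable Tet-On inducible cell line, Ca2+ influx triggered by glutamate at about EC40 plus 10 µM glycine, fluorescent dye read-out over 5 min, normalized to control wells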
# Measurement conditions: standard assay buffer (0.5 mM MgCl2 dye loading; 137 mM NaCl, 4 mM KCl assay buffer), human GluN1/GluN2B cells, read-out: NR2B IC50 (μM) standard assay
Assay readout: IC50 (µM)

The following compounds have reported results that may help.
>>> measured_result("Cn1c(=O)n(CC(=O)NC2CC(F)(F)C2)c2cc(-c3cccc(C(F)(F)F)c3)cnc21")
0.174
>>> measured_result("Cc1cc(-c2cnc3c(c2)n(Cc2ncccn2)c(=O)n3C)ccc1F")
0.486
>>> measured_result("O=c1[nH]c2ncc(-c3cccc(C(F)F)c3)cc2n1Cc1cccnc1")
0.022
>>> measured_result("O=C(Cn1c(=O)[nH]c2ncc(-c3cccc(C(F)(F)F)c3)cc21)N1CC(F)(F)C1")
0.047
>>> measured_result("Cc1cc(-c2cnc3[nH]c(=O)n(CCN4CCC4)c3c2)ccc1F")
0.039
>>> measured_result("O=c1[nH]c2ncc(-c3ccc(F)cc3)cc2n1Cc1cccnc1")
0.098
>>> measured_result("Cn1c(=O)n(Cc2cccnn2)c2cc(-c3ccc(F)c(F)c3)cnc21")
0.223
>>> measured_result("O=c1[nH]c2ncc(-c3cccc(OC(F)F)c3)cc2n1Cc1cncc(F)c1")
0.021
>>> measured_result("O=c1[nH]c2ncc(-c3cccc(Cl)c3)cc2n1Cc1cccnc1")
0.029
>>> measured_result("O=c1[nH]c2ncc(-c3cccc(OC(F)(F)F)c3)cc2n1Cc1cncc(F)c1")
0.088

a: Cc1ccccc1-c1cnc2[nH]c(=O)n(CCN3CC(F)C3)c2c1
b: Cn1c(=O)n(CC(=O)N2CCC2)c2cc(-c3ccc(C4CC4)s3)cnc21
c: Cn1c(=O)n(Cc2cccnn2)c2cc(-c3cccc(F)c3)cnc21
d: Cn1c(=O)n(CC(=O)N2CCC2)c2cc(-c3ccc(CO)s3)cnc21
Prompt line: Sort (4 compounds) by IC50: min first. Provide the ranking by listing each label in its place in the requested order.
Response line: b, c, d, a
(b: 0.081 µM, c: 0.2 µM, d: 0.549 µM, a: 1.34 µM)
